Assay system: Recombinant human IL-1β (BioLegend 579404) (human, UniProt P01584 117-269)
Test name: cell-based or functional assay
Starred links: 1 amine or outer side, 2 acyl side, 3 side chain; linkers in the order of their positions; H or OH if unused. Non-standard residues stand in square brackets, D forms with d. dProc3Bn4Cl = (2R,3S)-3-[(4-chlorophenyl)methyl]pyrrolidine-2-carboxylic acid, O=C([C@H]1[C@@H](Cc2ccc(Cl)cc2)CCN1[*:1])[*:2]; Phe42ImMe = (S)-2-amino-3-(4-(1-methyl-1H-imidazol-2-yl)phenyl)propanoic acid, Cn1ccnc1-c1ccc(C[C@H](N[*:1])C(=O)[*:2])cc1; TyrEtNAc = (2S)-3-[4-(2-acetamidoethoxy)phenyl]-2-amino-propanoic acid, CC(=O)NCCOc1ccc(C[C@H](N[*:1])C(=O)[*:2])cc1; dPro(4R-(4-pyridylmethyl)) = O=C(O)[C@H]1C[C@@H](Cc2ccncc2)CN1; Trp(βS-Me,4-F) = C[C@@H](c1c[nH]c2cccc(F)c12)[C@H](N)C(=O)O; Bip(4'-COOH) = N[C@@H](Cc1ccc(-c2ccc(C(=O)O)cc2)cc1)C(=O)O; dPro(3S-(4-F-Bn)) = O=C(O)[C@@H]1NCC[C@@H]1Cc1ccc(F)cc1; 1Nal(3S-Me) = C[C@@H](c1cccc2ccccc12)[C@H](N)C(=O)O; Ala(pyrimidin-5-yl) = N[C@@H](Cc1cncnc1)C(=O)O; Phe(4-COOH) = N[C@@H](Cc1ccc(C(=O)O)cc1)C(=O)O; Bip = N[C@@H](Cc1ccc(-c2ccccc2)cc1)C(=O)O; Pro(cis-4-F) = O=C(O)[C@@H]1C[C@H](F)CN1; d(αMeD) = C[C@@](N)(CC(=O)O)C(=O)O; 4Pal = N[C@@H](Cc1ccncc1)C(=O)O; aThr = C[C@H](O)[C@H](N)C(=O)O; d(αMeS) = C[C@@](N)(CO)C(=O)O; Dab = NCC[C@H](N)C(=O)O; Aib = CC(C)(N)C(=O)O
The entries below are paired with their reported MRC5 IC50.
Write the answer as a number in nM, unit excluded.

Binder	MRC5 IC50, nM
cyclo([Phe42ImMe][4Pal][Phe(4-COOH)]G[Pro(cis-4-F)][Trp(βS-Me,4-F)][Aib]SW[d(αMeD)][Ala(pyrimidin-5-yl)]Q[Dab]G[dPro(3S-(4-F-Bn))]) (ring closure inferred) [SEQ ID NO 280]	0.016

Give the reported MRC5 IC50 for this binder. cyclo([Bip(4'-COOH)][4Pal][Phe(4-COOH)]G[Pro(cis-4-F)][Trp(βS-Me,4-F)][Aib][aThr]W[d(αMeS)][aThr]Q[Dab]G[dPro(4R-(4-pyridylmethyl))]) (ring closure inferred) [SEQ ID NO 352]
0.023

Give the reported MRC5 IC50 for this binder. cyclo([Bip(4'-COOH)][4Pal][Phe(4-COOH)]G[Pro(cis-4-F)][1Nal(3S-Me)][Aib]SW[d(αMeD)][aThr]Q[Dab]G[dPro(4R-(4-pyridylmethyl))]) (ring closure inferred) [SEQ ID NO 357]
0.017

Give the reported MRC5 IC50 for this binder. cyclo([Bip][4Pal][Phe(4-COOH)]G[Pro(cis-4-F)][Trp(βS-Me,4-F)][Aib]SW[Aib][dE]Q[Dab]G[dPro(4R-(4-pyridylmethyl))]) (ring closure inferred) [SEQ ID NO 250]
0.027

Give the reported MRC5 IC50 for this binder. cyclo([Bip(4'-COOH)][4Pal][Phe(4-COOH)]G[Pro(cis-4-F)][Trp(βS-Me,4-F)][Aib]SW[d(αMeD)][Ala(pyrimidin-5-yl)]Q[Dab]G[dPro(3S-(4-F-Bn))]) (ring closure inferred) [SEQ ID NO 331]
0.011

Give the reported MRC5 IC50 for this binder. cyclo([Bip(4'-COOH)][4Pal][Phe(4-COOH)]G[Pro(cis-4-F)][Trp(βS-Me,4-F)][Aib]SW[d(αMeD)][Ala(pyrimidin-5-yl)]Q[Dab]G[dProc3Bn4Cl]) (ring closure inferred) [SEQ ID NO 330]
0.008

Give the reported MRC5 IC50 for this binder. cyclo([TyrEtNAc][4Pal][Phe(4-COOH)]G[Pro(cis-4-F)][Trp(βS-Me,4-F)][Aib]EW[Aib]YQ[Dab]G[dPro(4R-(4-pyridylmethyl))]) (ring closure inferred; not fully specified (N-terminus)) [SEQ ID NO 310]
0.017
